test system: KM12 colon; test: NCI tumour cell line growth inhibition, 384-well format
Task for the reader: assign each of the following compounds its reported GI50.

Recorded results for 3 compounds are shown here.
# SMILES TEXT, GI50
records = [
    ("Nc1ccc(/C=C/C(=O)NCc2cc3cc(-c4ccc(C(=O)N5CCC(F)(F)CC5)cc4)cc(-c4ccc(F)cc4)c3o2)cn1", "58.6 nM"),
    ("CCc1c2c(nc3ccc(OC(=O)N4CCC(N5CCCCC5)CC4)cc13)-c1cc3c(c(=O)n1C2)COC(=O)[C@]3(O)CC", "2040 nM"),
    ("COc1ccc(CN2C3CC2CN(c2ccc(-c4cc(OCC(C)(C)O)cn5ncc(C#N)c45)cn2)C3)cn1", "> 100000 nM"),
]

// query GI50 lookup needed for Cn1cc(C2=C(c3cn(C4CCN(Cc5ccccn5)CC4)c4ccccc34)C(=O)NC2=O)c2ccccc21 , thanks.
// result 3930 nM
